Documented apparent KD of MS2 coat protein across a set of sequences
# Test system: MS2 coat protein
# protocolText: apparent KD of MS2 coat protein; designed switch direction (-1 OFF switch, 1 ON switch): -1; higher = weaker reporter binding
# conditionsUsed: Eterna round: R95; input ligand: FMN 200 uM
Give your result in nM as a bare value.

These recorded examples may help you get a feel for the data.
GGCCCUAAGGUCAGAUCCACAAGCUUUUUGCUCGUUUUAACAUGAGGAUCACCCAUGUCUAGUGGAUCUGAUCCUCU [Sensor v3, turn-off variant 2 (MOD of Indiso v.4)] (puzzle: Sensor v3, turn-off variant 2): 25.2
AGGAAACAUGAGGAUCACCCAUGUGAGGAUAUGAAAAAGAAAAGAAAAGAAAGAAGAAUCAGAAGGCACAAAGG [Mat - Mod of Hog D1] (puzzle: Exclusion 1): 52.9
AGUACUAUGCGAGCUGACUUGCGUAGUGCAGCAGGUGUAACAUGAGGAUCACCCAUGUCCUCAUUUGCUCGUCUUAA [Mat - Sensor v3 - Turn-off var 2 - D9] (puzzle: Sensor v3, turn-off variant 2): 240
AUACCAUGCCGCCUAAUAGCUUUUUGCUCGUCUUAUAAAACAUGAGGAUCACCCAUGUAAAACUCGUGGCGUGACCC [Leorbixe] (puzzle: Sensor v3, turn-off variant 2): 77

We next turn to a different sequence, shown below.
Problem: Record request: apparent KD of MS2 coat protein value, item GGAAAACAUGAGGAUCACCCAUGUAAGGAUAUGCAAAAGGAUAUAGAAGGAAAAAUAAGCAGAAGGUACAAAGG [salish99-ex1_r3_097] (puzzle: Exclusion 1)
Solution: 50.9

====

# System: MS2 coat protein
# protocolText: apparent KD of MS2 coat protein; designed switch direction (-1 OFF switch, 1 ON switch): -1; higher = weaker reporter binding
# conditionsUsed: input ligand: microRNA oligo, concentration not stated
Documented apparent KD of MS2 coat protein across a set of sequences
Give your result in nM as a bare value.

These recorded examples may help you get a feel for the data.
UACAUGAGGAUCACCCAUGUUUUGUCGUGUAUGGUACCCAUCUAGGAUAUCGUGUUAUUGGACCACGAGAAGGAGAGUAUCAAU [Excl-NG3-LRO01] (Eterna round: R96, puzzle: Exclusion NG 3): 18.1
UUGCAGUCAUCAGGAUAUAGUAUUACGGCCAUUUAUAUUUUCAUACAUGAGGAUCACCCAUGUCGCUAGAAGGGAUUAUCGAUU [Exclusion NG 2] (Eterna round: R96, puzzle: Exclusion NG 2): 34.5

We next turn to a different sequence, shown below.
Problem: Record request: apparent KD of MS2 coat protein value, item UUUUUUGGGCAAGGAUAUCCUGUGCGGUUCCGGCUCGUGUCUGUUACAUGAGGAUCACCCAUGUGGGAGAAGGUGCCUGCGGUU [Design 85] (Eterna round: R96, puzzle: Exclusion NG 2)
Solution: 31.1

====

# Tested on: MS2 coat protein
# protocolText: apparent KD of MS2 coat protein, switch OFF state (with FMN for OFF switches, without FMN for ON switches); designed switch direction (-1 OFF switch, 1 ON switch): -1; higher = weaker reporter binding
# conditionsUsed: FMN input: 0 or 200 uM; Eterna round: R93 (includes R88 designs)
attributeMeasured: apparent KD of MS2 coat protein (µM)
Give your result in µM as a bare value.

These recorded examples may help you get a feel for the data.
AAAAAACAUGAGGAUCACCCAUGUGAGGAUAUGCGAAAUAAAAAUAAAAUAAUAAAAAGCAGAAGGCACAAAAA [Amethyst 64]: 0.0406
AAAAAGUGAGGAUAUACAUGAGGAUCACCCAUGUGUAUAAAAAAAUACACAAAAGAAAGUAGAAGGCACUAAAA [Ex 3 Hot]: 0.0586

We next turn to a different sequence, shown below.
Problem: Record request: apparent KD of MS2 coat protein value, item AACAGUACAGGAUAUACAUGAGGAUCACCCAUGUGAGCAUUAAAAGGCGUACCUAAAAGUAGAAGGGUACUGGA [JL Maslow Revisted mod 22]
Solution: 0.0667

====

Documented apparent KD of K4 kissing-loop reporter across a set of sequences
# Tested on: K4 kissing-loop RNA reporter
# protocolText: apparent KD of K4 kissing-loop reporter; higher = weaker reporter binding
# conditionsUsed: Eterna round: R107; input ligand: tryptophan 2.4 mM
Give your result in nM as a bare value.

These recorded examples may help you get a feel for the data.
AUUAUAUAAUGGAGUGAUGUUCCAUCAGAUACCAGUGAAUUUGAACACCCUUGGCAGCUGUUGUUCAAAUAAUUUAAAUCCUUUA [JR_SSTheophyA_Sub019]: 103
CCUAGUGAUGUUAGGUCGUGCUCCUAUGAUACCAGCGUAGUCACUCGCCCUUGGCAGCAUUCCUUAUAAGGCGGUCGGGCGCGGU [theeternabot_sameState_KL_Theo_A_34]: 154

Problem: Record request: apparent KD of K4 kissing-loop reporter value, item AGUACAACUGCGGCCGCCACUCAACGCAGAUCAAAGAUCUGCAUUCACUCAGUGAUGUUGAGUGAGAGGACCGGGCAGUUGUACA [Omei KL Tryp B SS B v3]
Solution: 166

====

# System: K4 kissing-loop RNA reporter;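 note: bound reporter read as fluorescence of individual clusters on recovered sequencing chips by microscopy, with normalized cluster intensities fitted with a binding model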
# protocolText: apparent KD of K4 kissing-loop reporter; higher = weaker reporter binding
# conditionsUsed: Eterna round: R107; input ligand: none
Documented apparent KD of K4 kissing-loop reporter across a set of sequences
Give your result in nM as a bare value.

These recorded examples may help you get a feel for the data.
GGGUCUGUCGGAAGGAGCGCACUAUGGAGUGAUGUUCCAUGACCGCACAGCUUGCGGUCAGUGCAGGUAGGUCGCCGAUAGCUUU [Usquso]: 197
UAAUCCUAGUGAUAAUAAUCAAGUGGUGGGCGAGGACCGGUACGGCCGCCACUCGAAAAUGCAGUGAUGUUGUAAUCCGGAUAAU [Exclusion - Tryptophan A (Freestyle 5)]: 1080

We next turn to a different sequence, shown below.
Problem: Record request: apparent KD of K4 kissing-loop reporter value, item UUAGAGAUCUCAGGAUAUCAGUGAUGUUGGUAUCAAGAUCUGAGAUAGAAUUCUAUCUCAGAUCAAUGAGAAGGGAGAUCUCAUU [AK3.3 Exc FMN B]
Solution: 105

====

# Tested on: MS2 coat protein
# protocolText: apparent KD of MS2 coat protein, switch OFF state (with FMN for OFF switches, without FMN for ON switches); designed switch direction (-1 OFF switch, 1 ON switch): 1; higher = weaker reporter binding
# conditionsUsed: FMN input: 0 or 200 uM; Eterna round: R93 (includes R88 designs)
Rule: true for apparent KD of MS2 coat protein not less than 100 nM, false for anything less.

Answered examples (3):
GGCAGGAAGAGAGAGGAUAUCCAAAGGAAAACAUGAGGAUCACCCAUGUAAAAGGUAGGAAAUUGGGAGAAGGCUCAAGAGAGAG [salish99-ss2-099]: false
ACUAUACAUGAGGAUCACCCAUGUCAGGUGGGACUAGGAUAUCAUAAGCCAGAGUAAGAAUGAGAAGGAGUAGAAA [JR_SS001_Sub306]: true
GGGAGACAUGAGGAUCACCCAUGUGAGAAGAGGCGAGGAUAUCGAAAAAAAAAAAAAAAACGAGAAGGCGCGAGAC [salish99-SS1-006]: false

Problem: Does the reported apparent KD of MS2 coat protein for CUGGACCUAGGAUAGGAUAUGUGAAUAAUUACAUGAGGAUCACCCAUGUCCAUUUAUAUGGGAACAUAGAAGGGUUUUGGUUAAG [Mat - Same state - Malcolm Mod - D147] fall at or above the 100 nM mark?
Solution: true

Problem: Does the reported apparent KD of MS2 coat protein for CGCCAAUUGGCACAGGAUAUGAGCAUGCUCACAUGAGGAUCACCCAUGUGAUUAACAACGCAAUAUCAGAAGGGUGCCCUCAUCA [Leonon] fall at or above the 100 nM mark?
Solution: false

====

Documented apparent KD of MS2 coat protein across a set of sequences
# Test system: MS2 coat protein
# protocolText: apparent KD of MS2 coat protein; designed switch direction (-1 OFF switch, 1 ON switch): -1; higher = weaker reporter binding
# conditionsUsed: input ligand: none

CCACGACAUGAGGAUCACCCAUGUGAGGAUAUGGCCUGAAAAGCGUGAGCAGUUUCUAUCAGAAGGCGCGUGGG [salish99_ex1_r4_063] (Eterna round: R97, puzzle: Exclusion 1): 49.4 nM

Problem: Recall the recorded apparent KD of MS2 coat protein for GAGCAGCCGAUAGGAUAUUCCGAGCUAAAGAGCAGUAGGACAUGAGGAUCACCCAUGUGUGCAUGGAAGAAGGGUCACUUCCAG [Eternabot solution 23] (Eterna round: R96, puzzle: Exclusion NG 2) with MS2 coat protein and state it.
Solution: 30.7 nM

Problem: Recall the recorded apparent KD of MS2 coat protein for ACCUCACAUGAGGAUCACCCAUGUCAGGAUAUCUAAUAUUGUAGCGUUCCCGACGCUAAGAGAAGGGACAUUAA [EX1 #31] (Eterna round: R97, puzzle: Exclusion 1) with MS2 coat protein and state it.
Solution: 16.5 nM
